Biological target: von Willebrand factor full length (Homo sapiens, UniProt P04275 SEQ:764-2813)
Assay: filter; 55% bound at 100 nM
Conditions: tags: Calbiochem 681300
Measured Property: pKd
Answer as the number alone; pKd is minus log10 of concentration in mol/L.

Can you share its pKd? I mean this binder: GGCGTGCAGTGCCTTCGGCCGTGCGGTGCCTCCGTCACGCC (ssDNA, 2'-OMe at 2; 3'-idT) [ARC1195]
9.00
